Cited source: ChEMBL document CHEMBL2029259

pIC50: recorded values
# MEASURED_ON: Epidermal growth factor receptor (Homo sapiens, UniProt P00533, L858R/T790M)
# Sequence (P00533 25-1210 T790M/L858R limits assumed): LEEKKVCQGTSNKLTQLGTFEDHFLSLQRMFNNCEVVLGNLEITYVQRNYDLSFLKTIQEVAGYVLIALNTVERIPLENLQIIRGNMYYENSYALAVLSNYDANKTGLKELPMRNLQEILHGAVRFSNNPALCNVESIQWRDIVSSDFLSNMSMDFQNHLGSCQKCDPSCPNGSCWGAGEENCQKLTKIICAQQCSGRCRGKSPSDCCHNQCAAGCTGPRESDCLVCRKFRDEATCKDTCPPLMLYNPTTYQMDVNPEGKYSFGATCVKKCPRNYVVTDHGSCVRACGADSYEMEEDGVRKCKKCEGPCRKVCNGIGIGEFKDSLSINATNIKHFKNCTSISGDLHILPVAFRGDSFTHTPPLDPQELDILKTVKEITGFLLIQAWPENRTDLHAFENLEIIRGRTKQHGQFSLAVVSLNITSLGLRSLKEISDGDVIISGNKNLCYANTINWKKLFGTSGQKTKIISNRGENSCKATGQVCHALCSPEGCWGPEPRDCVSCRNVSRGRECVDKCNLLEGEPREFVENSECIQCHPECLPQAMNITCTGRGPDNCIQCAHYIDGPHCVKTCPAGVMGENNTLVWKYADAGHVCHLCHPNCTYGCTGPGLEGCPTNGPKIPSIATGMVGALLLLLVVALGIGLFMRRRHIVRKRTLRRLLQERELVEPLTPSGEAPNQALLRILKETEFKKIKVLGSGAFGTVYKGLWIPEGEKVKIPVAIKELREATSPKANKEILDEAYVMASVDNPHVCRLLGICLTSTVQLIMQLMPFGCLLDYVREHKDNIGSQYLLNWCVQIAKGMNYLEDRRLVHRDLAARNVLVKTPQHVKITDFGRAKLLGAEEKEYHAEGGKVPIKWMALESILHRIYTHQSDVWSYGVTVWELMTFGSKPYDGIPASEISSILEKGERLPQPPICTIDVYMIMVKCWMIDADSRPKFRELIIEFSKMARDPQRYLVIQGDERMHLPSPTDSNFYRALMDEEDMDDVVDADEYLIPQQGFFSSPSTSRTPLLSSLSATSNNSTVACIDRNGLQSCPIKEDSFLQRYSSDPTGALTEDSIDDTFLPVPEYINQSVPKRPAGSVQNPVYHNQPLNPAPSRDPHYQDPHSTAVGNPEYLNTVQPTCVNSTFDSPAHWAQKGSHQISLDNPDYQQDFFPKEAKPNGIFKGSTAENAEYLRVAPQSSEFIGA
# EXPERIMENTAL_DETAILS: Inhibition of EGFR L858R/T790M mutant after 1.5 hr by FRET assay
pIC50: −log10 of the molar value.

{"ENTRY_SMILES": "C=CC(=O)Nc1cccc(N2C(=O)N(c3ccc(-c4ccccc4)cc3)Cc3cnc(Nc4ccc(N5CCN(C)CC5)cc4OC)nc32)c1", "MEASURED_ON": "Epidermal growth factor receptor (Homo sapiens, UniProt P00533, L858R/T790M)", "BOUND_SIGN": "=", "pIC50": 8.33}
{"ENTRY_SMILES": "C=CC(=O)Nc1cccc(N2C(=O)N(c3ccccc3)Cc3cnc(Nc4ccc(N5CCN(C)CC5)cc4OC)nc32)c1", "MEASURED_ON": "Epidermal growth factor receptor (Homo sapiens, UniProt P00533, L858R/T790M)", "BOUND_SIGN": "=", "pIC50": 9.01}
{"ENTRY_SMILES": "C=CC(=O)Nc1cccc(N2C(=O)N(C)Cc3cnc(Nc4ccccc4)nc32)c1", "MEASURED_ON": "Epidermal growth factor receptor (Homo sapiens, UniProt P00533, L858R/T790M)", "BOUND_SIGN": "=", "pIC50": 7.55}
{"ENTRY_SMILES": "C=CC(=O)Nc1cccc(N2C(=O)N(C(C)C)Cc3cnc(Nc4ccc(N5CCN(C)CC5)cc4OC)nc32)c1", "MEASURED_ON": "Epidermal growth factor receptor (Homo sapiens, UniProt P00533, L858R/T790M)", "BOUND_SIGN": "=", "pIC50": 8.35}
{"ENTRY_SMILES": "CCC(=O)Nc1cccc(N2C(=O)N(C)Cc3cnc(Nc4ccc(N5CCN(C)CC5)cc4OC)nc32)c1", "MEASURED_ON": "Epidermal growth factor receptor (Homo sapiens, UniProt P00533, L858R/T790M)", "BOUND_SIGN": "<", "pIC50": 6.00}
{"ENTRY_SMILES": "C=CC(=O)Nc1cccc(N2C(=O)N(C)Cc3cnc(Nc4ccc(N5CCN(C)CC5)cc4C)nc32)c1", "MEASURED_ON": "Epidermal growth factor receptor (Homo sapiens, UniProt P00533, L858R/T790M)", "BOUND_SIGN": "=", "pIC50": 8.38}
{"ENTRY_SMILES": "C=CC(=O)Nc1cccc(N2C(=O)N(C)Cc3cnc(Nc4ccc(N5CCN(C)CC5)cc4)nc32)c1", "MEASURED_ON": "Epidermal growth factor receptor (Homo sapiens, UniProt P00533, L858R/T790M)", "BOUND_SIGN": "=", "pIC50": 8.92}
{"ENTRY_SMILES": "C=CC(=O)Nc1cccc(N2C(=O)N(c3ccc(Oc4ccccc4)cc3)Cc3cnc(Nc4ccc(N5CCN(C)CC5)cc4OC)nc32)c1", "MEASURED_ON": "Epidermal growth factor receptor (Homo sapiens, UniProt P00533, L858R/T790M)", "BOUND_SIGN": "=", "pIC50": 8.45}
{"ENTRY_SMILES": "C=CC(=O)Nc1cccc(N2C(=O)N(C)Cc3cnc(Nc4ccc(N(C)C)cc4OC)nc32)c1", "MEASURED_ON": "Epidermal growth factor receptor (Homo sapiens, UniProt P00533, L858R/T790M)", "BOUND_SIGN": "=", "pIC50": 7.94}
{"ENTRY_SMILES": "C=CC(=O)Nc1cccc(N2C(=O)N(Cc3ccccc3)Cc3cnc(Nc4ccc(N5CCN(C)CC5)cc4OC)nc32)c1", "MEASURED_ON": "Epidermal growth factor receptor (Homo sapiens, UniProt P00533, L858R/T790M)", "BOUND_SIGN": "=", "pIC50": 9.03}
{"ENTRY_SMILES": "C=CC(=O)Nc1cccc(N2C(=O)N(C)Cc3cnc(Nc4ccc(N5CCCCC5)cc4OC)nc32)c1", "MEASURED_ON": "Epidermal growth factor receptor (Homo sapiens, UniProt P00533, L858R/T790M)", "BOUND_SIGN": "=", "pIC50": 7.44}
{"ENTRY_SMILES": "C=CC(=O)Nc1cccc(N2C(=O)N(C)Cc3cnc(Nc4ccc(N5CCN(C)CC5)cc4F)nc32)c1", "MEASURED_ON": "Epidermal growth factor receptor (Homo sapiens, UniProt P00533, L858R/T790M)", "BOUND_SIGN": "<", "pIC50": 6.00}
{"ENTRY_SMILES": "C=CC(=O)Nc1cccc(N2C(=O)N(C)Cc3cnc(Nc4ccc(N5CCC(N(C)C)CC5)cc4OC)nc32)c1", "MEASURED_ON": "Epidermal growth factor receptor (Homo sapiens, UniProt P00533, L858R/T790M)", "BOUND_SIGN": "=", "pIC50": 8.28}
